In this section, each of the compounds is paired with its reported LDH release cytotoxicity.
Tested on: HepaRG
Assay: LDH release cytotoxicity, % of total lysis control; higher = more cytotoxic
Conditions: 3.16228 µM; 48 h
Measured Quantity: LDH release cytotoxicity (%)

{"Compound": "CCCN(CCC)c1c([N+](=O)[O-])cc(C(C)C)cc1[N+](=O)[O-] [Isopropalin]", "Quantitative Readout": -1.98}
{"Compound": "CN(C)C(=O)Nc1ccc(Cl)cc1 [Monuron]", "Quantitative Readout": -2.49}
{"Compound": "CCCCN(CCCC)SN(C)C(=O)Oc1cccc2c1OC(C)(C)C2 [Carbosulfan]", "Quantitative Readout": 0.429}
{"Compound": "CC(C)(C)c1cccc(C(C)(C)C)c1O [2,6-Di-tert-butylphenol]", "Quantitative Readout": -2.37}
{"Compound": "CCCCNC(=O)n1c(NC(=O)OC)nc2ccccc21 [Benomyl]", "Quantitative Readout": -1.18}
{"Compound": "Oc1cc(Cl)c(Cl)cc1Cl [2,4,5-Trichlorophenol]", "Quantitative Readout": -1.83}
{"Compound": "CCCN(CCC)C(=O)SCC [EPTC]", "Quantitative Readout": -0.208}
{"Compound": "Cc1ccc(O)c(C)c1 [2,4-Dimethylphenol]", "Quantitative Readout": 0.0582}
{"Compound": "COP(=S)(OC)SCN1C(=O)c2ccccc2C1=O [Phosmet]", "Quantitative Readout": -1.56}
{"Compound": "OC(CCl)CCl [1,3-Dichloro-2-propanol]", "Quantitative Readout": -0.223}

###

Tested on: HepaRG
Assay: LDH release cytotoxicity, % of total lysis control; higher = more cytotoxic
Details: 3.16228 µM; 48 h
Listed compounds paired with reported LDH release cytotoxicity
Measured Quantity: LDH release cytotoxicity (%)

{"Compound": "CN(C)C(=O)Cl [Dimethylcarbamoyl chloride]", "Measured Quantity": "LDH release cytotoxicity", "Value Unit": "%", "Quantitative Readout": -0.264}
{"Compound": "Cc1ccc2ncccc2c1 [6-Methylquinoline]", "Measured Quantity": "LDH release cytotoxicity", "Value Unit": "%", "Quantitative Readout": 1.12}
{"Compound": "COCCOCCOCCOC [Triethylene glycol dimethyl ether]", "Measured Quantity": "LDH release cytotoxicity", "Value Unit": "%", "Quantitative Readout": -3.81}
{"Compound": "CC1=NC(=O)N(C(C)(C)C)C(=O)C1Cl (stereo not given) [Terbacil]", "Measured Quantity": "LDH release cytotoxicity", "Value Unit": "%", "Quantitative Readout": -2.68}
{"Compound": "Cc1c(C(=O)O)c(O)cc2c1C(=O)c1c(O)c(C3OC(CO)C(O)C(O)C3O)c(O)c(O)c1C2=O (stereo not given) [Carminic acid]", "Measured Quantity": "LDH release cytotoxicity", "Value Unit": "%", "Quantitative Readout": -11.2}
{"Compound": "c1ccc2[nH]c(-c3cscn3)nc2c1 [Thiabendazole]", "Measured Quantity": "LDH release cytotoxicity", "Value Unit": "%", "Quantitative Readout": -1.13}
{"Compound": "CC(=O)OCCOCCOCCOC(C)=O [Triethylene glycol diacetate]", "Measured Quantity": "LDH release cytotoxicity", "Value Unit": "%", "Quantitative Readout": 0.0849}
{"Compound": "COP(=O)(OC)C(O)C(Cl)(Cl)Cl (stereo not given) [Trichlorfon]", "Measured Quantity": "LDH release cytotoxicity", "Value Unit": "%", "Quantitative Readout": 19.7}
{"Compound": "CCC(C)(CC)c1cc(NC(=O)c2c(OC)cccc2OC)on1 [Isoxaben]", "Measured Quantity": "LDH release cytotoxicity", "Value Unit": "%", "Quantitative Readout": -2.88}
{"Compound": "CNCc1ccc(NC(=O)c2c[nH]c3c2C(=O)CCC3)cc1", "Measured Quantity": "LDH release cytotoxicity", "Value Unit": "%", "Quantitative Readout": -1.06}

###

System: HepaRG
Assay: LDH release cytotoxicity, % of total lysis control; higher = more cytotoxic
Details: 100 µM; 48 h
Structures can show the parent of a compound that is named as a salt.
Measured Quantity: LDH release cytotoxicity (%)

{"Molecule": "OC(CCl)CCl [1,3-Dichloro-2-propanol]", "Quantitative Readout": -0.702}
{"Molecule": "C=C(C)C(=O)OCCC(F)(F)C(F)(F)C(F)(F)C(F)(F)C(F)(F)C(F)(F)F [6:2 Fluorotelomer methacrylate]", "Quantitative Readout": 1.55}
{"Molecule": "CC(=O)Nc1ccc(O)cc1 [Acetaminophen]", "Quantitative Readout": -1.82}
{"Molecule": "CNC(=O)ON=C(SC)C(=O)N(C)C [Oxamyl]", "Quantitative Readout": -1.42}
{"Molecule": "CC(C)(C)c1cc(C=C2SC(=N)NC2=O)cc(C(C)(C)C)c1O [Darbufelone mesylate]", "Quantitative Readout": -1.56}
{"Molecule": "COc1ccccc1N [2-Anisidine]", "Quantitative Readout": 4.39}
{"Molecule": "Cc1cc(Cc2ccc(N)c(C)c2)ccc1N [4,4'-Diamino-3,3'-dimethyldiphenylmethane]", "Quantitative Readout": -0.749}
{"Molecule": "O=C(Nc1ccc([N+](=O)[O-])cc1Cl)c1cc(Cl)ccc1O [5-Chloro-N-(2-chloro-4-nitrophenyl)-2-hydroxybenzamide]", "Quantitative Readout": 4.52}
{"Molecule": "CCCOc1nn(C(=O)NS(=O)(=O)c2ccccc2C(=O)OC)c(=O)n1C [Propoxycarbazone-sodium]", "Quantitative Readout": 0.864}

###

Test system: HepaRG
Assay: LDH release cytotoxicity, % of total lysis control; higher = more cytotoxic
Settings: 31.6228 µM; 48 h
Where a name gives a salt, the structure may show the parent alone.
Measured Quantity: LDH release cytotoxicity (%)

{"Molecule": "C1CC2OC2CC1C1CO1 (stereo not given) [4-Vinyl-1-cyclohexene dioxide]", "Measured Quantity": "LDH release cytotoxicity", "Quantitative Readout": -0.613}
{"Molecule": "CCOc1cccc(-n2cc(C(=O)N3CCN(c4cc(C(=O)O)c5ccccc5c4)CC3)nc2-c2ccc(C)cc2)c1", "Measured Quantity": "LDH release cytotoxicity", "Quantitative Readout": 9.35}
{"Molecule": "CC(=O)C1(O)CCC2C3CCC4=CC(=O)CCC4(C)C3CCC21C (stereo not drawn) [17alpha-Hydroxyprogesterone]", "Measured Quantity": "LDH release cytotoxicity", "Quantitative Readout": -0.397}
{"Molecule": "COCCOCCO", "Measured Quantity": "LDH release cytotoxicity", "Quantitative Readout": 0.0217}
{"Molecule": "O=[N+]([O-])/N=C1\\NCCN1Cc1ccc(Cl)nc1", "Measured Quantity": "LDH release cytotoxicity", "Quantitative Readout": -0.538}
{"Molecule": "CC1CN(N=Cc2cccnc2)C(=O)N=N1 (stereo not given)", "Measured Quantity": "LDH release cytotoxicity", "Quantitative Readout": 6.57}
{"Molecule": "CN1CC=NC1=S", "Measured Quantity": "LDH release cytotoxicity", "Quantitative Readout": -1.83}
{"Molecule": "CCCCCCCCCCCCOS(=O)(=O)O [Sodium dodecyl sulfate]", "Measured Quantity": "LDH release cytotoxicity", "Quantitative Readout": 0.0441}
{"Molecule": "CC(C)(C)C(O)C(Oc1ccc(Cl)cc1)n1cncn1 (stereo not given)", "Measured Quantity": "LDH release cytotoxicity", "Quantitative Readout": -0.253}
{"Molecule": "CC12CCC3c4ccc(O)cc4CC(CCCCCCCCCS(=O)CCCC(F)(F)C(F)(F)F)C3C1CCC2O (stereo not given)", "Measured Quantity": "LDH release cytotoxicity", "Quantitative Readout": -3.17}
{"Molecule": "CCCCN1C(=O)C(C(O)C2CCCCC2)NC(=O)C12CCN(Cc1ccc(Oc3ccc(C(=O)O)cc3)cc1)CC2 (stereo not given) [Aplaviroc hydrochloride]", "Measured Quantity": "LDH release cytotoxicity", "Quantitative Readout": 7.4}
{"Molecule": "O=c1c(-c2ccc(O)cc2)coc2cc(O)cc(O)c12", "Measured Quantity": "LDH release cytotoxicity", "Quantitative Readout": -1.5}
{"Molecule": "NC(=O)NO [Hydroxyurea]", "Measured Quantity": "LDH release cytotoxicity", "Quantitative Readout": -0.278}
{"Molecule": "CC(=O)OCCOCCOCCOC(C)=O [Triethylene glycol diacetate]", "Measured Quantity": "LDH release cytotoxicity", "Quantitative Readout": -0.553}
{"Molecule": "NS(=O)(=O)c1cc2c(cc1Cl)NCNS2(=O)=O [Hydrochlorothiazide]", "Measured Quantity": "LDH release cytotoxicity", "Quantitative Readout": -1.51}
{"Molecule": "CCCSC(=O)N(CCC)CCC [Vernolate]", "Measured Quantity": "LDH release cytotoxicity", "Quantitative Readout": 0.0809}
{"Molecule": "OCCOCCO", "Measured Quantity": "LDH release cytotoxicity", "Quantitative Readout": -0.731}
{"Molecule": "COC(=O)C(C)Oc1ccc(Oc2ccc(Cl)cc2Cl)cc1 (racemic) [Methyl (RS)-2-[4-(2,4-dichlorophenoxy)phenoxy]propionate]", "Measured Quantity": "LDH release cytotoxicity", "Quantitative Readout": -1.8}
{"Molecule": "CN(C)C(=O)Nc1ccc(Cl)cc1", "Measured Quantity": "LDH release cytotoxicity", "Quantitative Readout": -0.555}
{"Molecule": "CCCCCCCCCCCCc1ccccc1", "Measured Quantity": "LDH release cytotoxicity", "Quantitative Readout": -1.17}
